B1: HSP90AB1 (parent)
chain: EADKNDKAVKDLVVLLFETALLSS

# Variants of: B1
# assay.overview: protein stability index of a GFP-peptide fusion (GPS, HEK-293T) (PSI 1-6); higher = more stable;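 further: lentivirally expressed fusions sorted by FACS into six bins by GFP to DsRed ratio, PSI derived from sequencing read proportions per bin multiplied by bin number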
# details: c terminus: a fixed tail appended
parameter.measured: protein stability index
Reply with just the number.

In [3]: df
Out[3]:
   mutation_id  number
0          A2L    1.68
1         D11I     3.6
2         K10Q    2.19

Query: Consider the variant shown here: D3G What is its recorded protein stability index?
Reply: 1.58

Query: For the variant D3I , what protein stability index is on record?
Reply: 1.9

Query: May I ask what protein stability index has been recorded for L21M ?
Reply: 1.86
